Data credit: the supplement of paper PMC10065799

Molecular target: FGFR3 (UniProt P22607)
Sequence (P22607 whole entry, looked up): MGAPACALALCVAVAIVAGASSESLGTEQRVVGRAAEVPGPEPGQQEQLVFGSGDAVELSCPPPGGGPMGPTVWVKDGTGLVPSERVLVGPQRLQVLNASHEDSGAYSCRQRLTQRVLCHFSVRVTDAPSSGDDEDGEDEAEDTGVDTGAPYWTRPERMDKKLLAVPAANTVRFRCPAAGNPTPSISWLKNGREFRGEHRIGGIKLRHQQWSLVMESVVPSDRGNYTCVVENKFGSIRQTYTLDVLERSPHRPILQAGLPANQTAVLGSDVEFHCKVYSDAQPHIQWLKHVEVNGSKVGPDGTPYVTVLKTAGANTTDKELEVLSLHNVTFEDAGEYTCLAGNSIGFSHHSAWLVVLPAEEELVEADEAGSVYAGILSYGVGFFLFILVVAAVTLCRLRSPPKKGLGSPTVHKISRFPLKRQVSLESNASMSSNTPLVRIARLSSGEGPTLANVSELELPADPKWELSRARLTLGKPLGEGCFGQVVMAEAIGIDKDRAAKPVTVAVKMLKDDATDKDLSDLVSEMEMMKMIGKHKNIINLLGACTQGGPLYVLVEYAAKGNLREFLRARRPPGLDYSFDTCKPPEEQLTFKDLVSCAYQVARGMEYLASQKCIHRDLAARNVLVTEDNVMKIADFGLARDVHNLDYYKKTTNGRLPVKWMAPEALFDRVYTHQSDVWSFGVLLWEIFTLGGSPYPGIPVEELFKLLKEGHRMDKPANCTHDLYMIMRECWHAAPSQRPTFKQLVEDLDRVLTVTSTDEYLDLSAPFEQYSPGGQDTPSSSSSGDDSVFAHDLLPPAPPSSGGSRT
Experiment: phosphorylation enrichment, bacterial display (enrichment ratio); higher = better substrate or ligand; peptides without Tyr show the background;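 also: 11-residue human phosphosite peptides and single-mutation variants displayed on the E. coli surface, counted by deep sequencing, each peptide's frequency after selection divided by its frequency in the unselected input library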;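 also: frequency after pTyr selection over input frequency; kinase dosed for 20-30% of maximal phosphorylation in three min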
Label rule met when phosphorylation enrichment >= 0.6; otherwise rule not met.

# count of solved cases: 5
AGIENYTSRFG [NKD2_Y256] :: rule not met
GTGTAYLCGVK [ALPL_Y117_A114G] :: rule not met
TNDRLYLRSLE [MTM1_Y71_Y68D] :: rule not met
REVPVYIGEDS [SYNM_Y460] :: rule met
IKIMGYFIRTI [IDS_Y490_S491F] :: rule met

Below: the item to evaluate.
**Q:** Given MTRDIYETDYY [INSR_Y1185] , state whether its phosphorylation enrichment is at least 0.6.
**A:** rule met
